// data source = paper PMC8119466

molecular target: recombinant PRL-3 (Homo sapiens, UniProt O75365); construct: 6xHis (N, cleaved yes); made in house; host or cells: E. coli One Shot BL21 Star; assay: In vitro phosphatase assay (DiFMUP hydrolysis), PRL-3; format: biochemical; conditions: FDA-approved drug screen; compared to DMSO; further: test concentration or dose not given here
Sequence (O75365 whole entry): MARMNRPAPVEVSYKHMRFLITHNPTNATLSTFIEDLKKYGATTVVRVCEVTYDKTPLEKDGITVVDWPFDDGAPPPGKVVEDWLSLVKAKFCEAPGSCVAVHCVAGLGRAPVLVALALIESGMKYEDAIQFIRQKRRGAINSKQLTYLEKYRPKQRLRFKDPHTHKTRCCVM
Where a name gives a salt, the structure may show the parent alone.
Please provide measured % Phosphatase Activity (compared to DMSO) PRL-3 for the entries that follow.
Write the answer as a number in %, unit excluded.

Kindly note the recorded % Phosphatase Activity (compared to DMSO) PRL-3 for C=C1CC[C@@]2(O)[C@H]3Cc4ccc(O)c5c4[C@@]2(CCN3CC2CC2)[C@H]1O5 [Nalmefene HCl] , which is 95

Kindly note the recorded % Phosphatase Activity (compared to DMSO) PRL-3 for CC1CCc2c(N3CCC(O)CC3)c(F)cc3c(=O)c(C(=O)O)cn1c23 (centres unmarked) , which is 86

Kindly note the recorded % Phosphatase Activity (compared to DMSO) PRL-3 for CCC(=O)O[C@@H](O[P@](=O)(CCCCc1ccccc1)CC(=O)N1C[C@H](C2CCCCC2)C[C@H]1C(=O)[O-])C(C)C.[Na+] [Fosinopril Sodium] , which is 80

Kindly note the recorded % Phosphatase Activity (compared to DMSO) PRL-3 for "C[C@H](CCC(=O)O)[C@H]1CC[C@H]2[C@@H]3CC[C@@H]4C[C@H](O)CC[C@]4(C)[C@H]3C[C@H](O)[C@]12C" , which is 96

Kindly note the recorded % Phosphatase Activity (compared to DMSO) PRL-3 for CC[C@H](C)C(=O)O[C@H]1C[C@H](O)C=C2C=C[C@H](C)[C@H](CC[C@@H](O)C[C@@H](O)CC(=O)O)[C@H]21 [Pravastatin sodium] , which is 93

Kindly note the recorded % Phosphatase Activity (compared to DMSO) PRL-3 for COC(=O)/C=C/C(=O)OC [Dimethyl Fumarate] , which is 83

Kindly note the recorded % Phosphatase Activity (compared to DMSO) PRL-3 for "C[C@@H]1CC(=O)NN=C1c1ccc(NN=C(C#N)C#N)cc1" , which is 69

Kindly note the recorded % Phosphatase Activity (compared to DMSO) PRL-3 for "Cc1cccc(-c2nn3c(c2-c2ccnc4ccc(C(N)=O)cc24)CCC3)n1" , which is 115

* * *

Please provide measured % Phosphatase Activity (compared to DMSO) PRL-1 for the entries that follow.
Biological target: recombinant PRL-1 (Homo sapiens, UniProt Q93096)
Construct: 6xHis (N, cleaved yes); made in house; host or cells: E. coli One Shot BL21 Star
Sequence (Q93096 1-173): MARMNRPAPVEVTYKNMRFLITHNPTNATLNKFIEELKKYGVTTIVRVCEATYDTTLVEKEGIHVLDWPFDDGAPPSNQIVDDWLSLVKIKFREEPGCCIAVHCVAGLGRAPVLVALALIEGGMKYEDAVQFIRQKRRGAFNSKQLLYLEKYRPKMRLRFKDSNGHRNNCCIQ
Experiment: In vitro phosphatase assay (DiFMUP hydrolysis), PRL-1; further: test concentration or dose not given here
Type: biochemical
Conditions: FDA-approved drug screen; compared to DMSO
Where a name gives a salt, the structure may show the parent alone.
Write the answer as a number in %, unit excluded.

Kindly note the recorded % Phosphatase Activity (compared to DMSO) PRL-1 for CCC(C)(C)c1ccc(CC(C)CN2C[C@@H](C)O[C@@H](C)C2)cc1 (some centres unmarked) [Amorolfine HCl] , which is 102

Kindly note the recorded % Phosphatase Activity (compared to DMSO) PRL-1 for OC(CCCN1CCCCC1)(c1ccccc1)c1ccccc1 [Diphenidol HCl] , which is 102

Kindly note the recorded % Phosphatase Activity (compared to DMSO) PRL-1 for COc1ccccc1OCC(O)COC(N)=O (centres unmarked) , which is 92

Kindly note the recorded % Phosphatase Activity (compared to DMSO) PRL-1 for "CCOc1cc([C@@H](CS(C)(=O)=O)N2C(=O)c3cccc(NC(C)=O)c3C2=O)ccc1OC" , which is 100

Kindly note the recorded % Phosphatase Activity (compared to DMSO) PRL-1 for "O=S(=O)([O-])CCSSCCS(=O)(=O)[O-].[Na+].[Na+]" , which is 99

Kindly note the recorded % Phosphatase Activity (compared to DMSO) PRL-1 for Nc1cccc2c1CN(C1CCC(=O)NC1=O)C2=O (centres unmarked) [Lenalidomide (CC-5013)] , which is 87

Kindly note the recorded % Phosphatase Activity (compared to DMSO) PRL-1 for COc1ccc(C2CNC(=O)C2)cc1OC1CCCC1 (centres unmarked) , which is 99

Kindly note the recorded % Phosphatase Activity (compared to DMSO) PRL-1 for COc1ccc(C[C@@H]2c3cc(OC)c(OC)cc3CC[N@+]2(C)CCC(=O)OCCCCCOC(=O)CC[N@@+]2(C)CCc3cc(OC)c(OC)cc3[C@H]2Cc2ccc(OC)c(OC)c2)cc1OC [Cisatracurium Besylate] , which is 99
